Reported EC50 values for the following compounds.
subject of test: PfENT1 (Plasmodium falciparum)
Sequence (Q8IDM6 whole entry): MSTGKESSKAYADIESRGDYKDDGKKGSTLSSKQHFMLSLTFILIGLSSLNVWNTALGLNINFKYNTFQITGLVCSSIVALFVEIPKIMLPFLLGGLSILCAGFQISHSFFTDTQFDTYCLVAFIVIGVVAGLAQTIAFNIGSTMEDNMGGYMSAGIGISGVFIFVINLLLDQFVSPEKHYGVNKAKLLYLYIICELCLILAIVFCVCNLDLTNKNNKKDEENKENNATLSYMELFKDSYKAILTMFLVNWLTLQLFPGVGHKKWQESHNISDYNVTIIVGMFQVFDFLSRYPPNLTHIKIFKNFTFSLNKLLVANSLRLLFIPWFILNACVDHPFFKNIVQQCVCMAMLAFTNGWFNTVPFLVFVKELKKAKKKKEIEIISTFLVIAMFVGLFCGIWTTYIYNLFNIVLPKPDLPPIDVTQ
test protocol: Yeast HTS Growth Assay
Enter the number, and then the unit.

{"molecule": "O=C(Nc1ccccc1C(=O)NC1CC1)c1cccc(N2CCCC2=O)c1", "EC50": "2.51 µM"}
{"molecule": "CCc1nnc(NC(=O)c2nc(-c3ccc(Cl)cc3)n3c2CCCCC3)s1", "EC50": "0.25 µM"}
{"molecule": "COc1ccc(-c2nc(C(=O)Nc3cccc(-c4nnc5n4CCCCC5)c3)cs2)cc1OC", "EC50": "3.16 µM"}
{"molecule": "CC(=O)Nc1nc(-c2c(F)cccc2F)cs1", "EC50": "63.1 µM"}
{"molecule": "Cc1oc(-c2ccccc2)nc1C(=O)NCCN1CCCCCC1=O", "EC50": "3.98 µM"}

// query Quick check: EC50 on PfENT1 (Plasmodium falciparum), item CCn1cnnc1C1CCN(C(=O)c2cn3ccc(C)cc3n2)CC1 ?
// result 10 µM

###

Reported pIC50 values for the following compounds.
subject of test: PvENT1 (Plasmodium vivax, UniProt A5K8B0)
Sequence (A5K8B0 whole entry): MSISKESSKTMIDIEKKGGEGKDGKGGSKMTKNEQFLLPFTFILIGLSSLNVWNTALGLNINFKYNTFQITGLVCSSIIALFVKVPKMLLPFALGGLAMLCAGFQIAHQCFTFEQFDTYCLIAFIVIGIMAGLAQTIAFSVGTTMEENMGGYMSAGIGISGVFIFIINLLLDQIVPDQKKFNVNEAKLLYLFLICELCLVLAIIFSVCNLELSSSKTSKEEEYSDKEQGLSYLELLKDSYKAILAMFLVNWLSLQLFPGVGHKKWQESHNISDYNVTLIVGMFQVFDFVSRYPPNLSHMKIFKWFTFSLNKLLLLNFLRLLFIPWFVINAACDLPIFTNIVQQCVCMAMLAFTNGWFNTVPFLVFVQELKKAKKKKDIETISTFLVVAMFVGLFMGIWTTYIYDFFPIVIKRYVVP
test protocol: [3H]adenosine uptake into PvENT1-expressing yeast
Format: cell-based
The scale used: pIC50 is minus the common logarithm of the concentration in molar units.

Example compounds with recorded pIC50:
{"compound": "CC(=O)Nc1nc(-c2c(F)cccc2F)cs1 [GSK-5]", "pIC50": 5.57}
{"compound": "Cc1oc(-c2ccccc2)nc1C(=O)NCCN1CCCCCC1=O [GSK-4]", "pIC50": 7.70}
{"compound": "O=C(Nc1ccccc1C(=O)NC1CC1)c1cccc(N2CCCC2=O)c1 [GSK-3]", "pIC50": 7.40}
{"compound": "CCc1nnc(NC(=O)c2nc(-c3ccc(Cl)cc3)n3c2CCCCC3)s1 [GSK-2]", "pIC50": 7.40}

// query So what does the record say about pIC50 for COc1ccc(-c2nc(C(=O)Nc3cccc(-c4nnc5n4CCCCC5)c3)cs2)cc1OC [GSK-1] ?
// result 6.85

###

test protocol: Property Forecast Index
Assay type: physicochemical
test parameters: chromatographic log D7.4 + aromatic ring count
outcome measure: PFI
A bare number is all that is needed in reply.

{"molecule": "CCc1nnc(NC(=O)c2nc(-c3ccc(Cl)cc3)n3c2CCCCC3)s1", "PFI": 9.6}

// query So what does the record say about PFI for Cc1oc(-c2ccccc2)nc1C(=O)NCCN1CCCCCC1=O ?
// result 6.5

###

Reported pIC50 values for the following compounds.
Test system: 3D7 strain P. falciparum parasites
test protocol: P. falciparum parasite proliferation, 3D7 strain
Format: cell-based
test parameters: Plasmodium falciparum, 3D7, 48 h, read-out: 3D7 parasite proliferation IC50
The scale used: pIC50 is minus the common logarithm of the concentration in molar units.

Example compounds with recorded pIC50:
{"compound": "COc1ccc(-c2nc(C(=O)Nc3cccc(-c4nnc5n4CCCCC5)c3)cs2)cc1OC [GSK-1]", "pIC50": 6.11}
{"compound": "Cc1oc(-c2ccccc2)nc1C(=O)NCCN1CCCCCC1=O [GSK-4]", "pIC50": 5.21}
{"compound": "CCc1nnc(NC(=O)c2nc(-c3ccc(Cl)cc3)n3c2CCCCC3)s1 [GSK-2]", "pIC50": 5.65}
{"compound": "CC(=O)Nc1nc(-c2c(F)cccc2F)cs1 [GSK-5]", "pIC50": 5.06}
{"compound": "CCn1cnnc1C1CCN(C(=O)c2cn3ccc(C)cc3n2)CC1 [GSK-6]", "pIC50": 4.99}

// query So what does the record say about pIC50 for O=C(Nc1ccccc1C(=O)NC1CC1)c1cccc(N2CCCC2=O)c1 [GSK-3] ?
// result 5.62
